B1: WEE1 (parent)
chain: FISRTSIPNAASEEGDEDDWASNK

variants of: B1; assay: protein stability index of a GFP-peptide fusion (GPS, HEK-293T) (PSI 1-6); higher = more stable; conditions: c terminus: a fixed tail appended;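 note: lentivirally expressed fusions sorted by FACS into six bins by GFP to DsRed ratio, PSI derived from sequencing read proportions per bin multiplied by bin number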
measurement_type: protein stability index

# mutant_id, measurement_type, result_value
data = [
    ("A11D", "protein stability index", 4.12),
    ("D16V", "protein stability index", 3.86),
    ("D18L", "protein stability index", 3.16),
    ("R4A", "protein stability index", 3.49),
    ("D18R", "protein stability index", 3.81),
    ("G15W", "protein stability index", 3.27),
    ("G15P", "protein stability index", 3.79),
    ("A21G", "protein stability index", 4.63),
    ("F1C", "protein stability index", 5.29),
    ("D19Q", "protein stability index", 3.87),
    ("F1H", "protein stability index", 5.37),
    ("A11Y", "protein stability index", 3.63),
    ("W20N", "protein stability index", 4.51),
    ("S12C", "protein stability index", 3.97),
    ("G15N", "protein stability index", 3.78),
    ("I2K", "protein stability index", 5.46),
    ("N23D", "protein stability index", 3.92),
    ("R4D", "protein stability index", 4.92),
    ("E13Q", "protein stability index", 3.81),
    ("S6G", "protein stability index", 3.58),
    ("E14F", "protein stability index", 3.53),
    ("I2S", "protein stability index", 5.02),
]
